- target.under.test: Mtb Eis (Mycobacterium tuberculosis, UniProt P9WFK7)
- Sequence (P9WFK7 whole entry): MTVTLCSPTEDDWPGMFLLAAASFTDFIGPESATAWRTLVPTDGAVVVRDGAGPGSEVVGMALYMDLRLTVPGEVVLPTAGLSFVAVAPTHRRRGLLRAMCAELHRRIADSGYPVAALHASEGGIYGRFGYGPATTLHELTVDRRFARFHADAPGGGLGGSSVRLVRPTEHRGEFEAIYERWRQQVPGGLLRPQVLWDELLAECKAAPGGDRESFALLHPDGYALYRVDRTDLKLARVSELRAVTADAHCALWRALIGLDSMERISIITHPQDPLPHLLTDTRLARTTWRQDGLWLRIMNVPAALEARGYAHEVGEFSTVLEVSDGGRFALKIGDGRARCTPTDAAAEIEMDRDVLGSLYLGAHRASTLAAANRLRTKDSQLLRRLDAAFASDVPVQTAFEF
- Format: biochemical
- condition.info: read-out: Ki (equilibrium constant for inhibitor binding to free enzyme); with respect to KAN; global nonlinear regression fit
recorded.endpoint: pKi
In textbook form, pKi equals minus log to base ten of the concentration in mol/L.

Task item: Dear colleague, I am looking for the recorded pKi of the following compound: NC(N)=NN=Cc1ccc(Cl)cc1 [Compound 1]
Reply: 4.77

###

- target.under.test: Mtb Eis (Mycobacterium tuberculosis, UniProt P9WFK7)
- Format: biochemical
recorded.endpoint: Ki (µM)
The answer is to be given in µM; state only the numeric part.

Task item: Dear colleague, I am looking for the recorded Ki of the following compound: `[H]/N=C(\N/C(=N/[H])Nc1ccc(Cl)cc1)NC(C)C`
Reply: 28

Task item: Next up: OC(c1cc(C(F)(F)F)nc2c(C(F)(F)F)cccc12)C1CCCCN1 (stereo not shown)
Reply: 7.2

Task item: Next up: CCN(CC)CCCC(C)Nc1ccnc2cc(Cl)ccc12 (stereo not shown)
Reply: 12.3

Task item: Next up: CN1CCCC(n2nc(Cc3ccc(Cl)cc3)c3ccccc3c2=O)CC1 (stereo not shown)
Reply: 0.24
